# efflux ratio listing for each entry below
- System: human MDR (P-glycoprotein)
- procedure-text: Efflux ratio of permeability from basolateral to apical side over apical to basolateral side of MDCK cells expressing human MDR gene
- Format: ADME, cell-based, Canis lupus familiaris
- experimental-conditions: dog, MDCK-MDR1
API note: the answer field is a bare number with no unit suffix.

| molecule | measured-on | recorded-number |
| --- | --- | --- |
| CC(C)S(=O)(=O)Nc1cncc(-c2ccccc2O[C@H]2C[C@@H]3CNC[C@H]2C3)c1.Cl (racemic) | human MDR (P-glycoprotein) | 1.49 |
| Cl.Oc1cncc(-c2ccccc2O[C@H]2C[C@@H]3CNC[C@H]2C3)c1 (racemic) | human MDR (P-glycoprotein) | 5.84 |
| Cl.c1cncc(-c2ccccc2O[C@H]2C[C@@H]3CNC[C@H]2C3)c1 (racemic) | human MDR (P-glycoprotein) | 1.75 |
| CS(=O)(=O)Nc1cncc(-c2ccccc2O[C@H]2C[C@@H]3CNC[C@H]2C3)c1.Cl | human MDR (P-glycoprotein) | 4.38 |
| CS(=O)(=O)Nc1cncc(-c2ccccc2O[C@@H]2C[C@H]3CNC[C@@H]2C3)c1.Cl | human MDR (P-glycoprotein) | 4.65 |

# molecule CCS(=O)(=O)Nc1cncc(-c2ccccc2O[C@H]2C[C@@H]3CNC[C@H]2C3)c1.Cl (racemic) ; its efflux ratio = 0.93
